Biological target: full length SGK1 (Homo sapiens)
Construct: 125 μM full length SGK1 (Life Technologies Part #PR7358A); purchased Life Technologies PR7358A
Sequence (O00141 whole entry): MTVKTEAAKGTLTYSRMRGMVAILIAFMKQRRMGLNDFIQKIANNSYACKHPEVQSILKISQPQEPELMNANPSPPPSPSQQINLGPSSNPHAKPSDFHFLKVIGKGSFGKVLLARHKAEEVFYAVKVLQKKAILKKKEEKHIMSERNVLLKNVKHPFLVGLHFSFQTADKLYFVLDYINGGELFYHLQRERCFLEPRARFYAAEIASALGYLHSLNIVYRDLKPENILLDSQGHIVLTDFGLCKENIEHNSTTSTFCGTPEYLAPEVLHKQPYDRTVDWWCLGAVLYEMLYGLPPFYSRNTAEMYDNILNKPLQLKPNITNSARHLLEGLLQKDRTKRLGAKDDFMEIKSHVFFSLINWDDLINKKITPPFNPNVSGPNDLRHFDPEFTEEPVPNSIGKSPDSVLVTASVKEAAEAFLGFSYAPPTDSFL
Experiment: SGK1 inhibition Assay A (Caliper LabChip electrophoretic separation of fluorescent peptide substrate and phosphorylated product)
Format: biochemical
Conditions: Assay A; 20 μM ATP, 40 min incubation; read-out: SGK1 IC50
Where a name gives a salt, the structure may show the parent alone.
observed property: IC50 (nM)
Number in nM, nothing else.

>>> df
                                   molecule  observed_property  test_result
0  CN(C)CCOc1cc(C2CC2)sc1C(=O)N[C@@H]1CCCN(c2cc(-c3ccc(=O)n(CC(F)F)c3)n3ncnc(N)c23)C1               IC50           21
1  Cc1nn(C)cc1-c1cc(N2CCC[C@@H](NC(=O)c3ccc(Cl)s3)C2)c2c(N)ncnn12               IC50           62
2  N#CC1(C(=O)N2CC=C(c3cc(N4CCC[C@@H](NC(=O)c5sc(Cl)cc5OCCN5CCOCC5)C4)c4c(N)ncnn34)C2)CC1               IC50           12
3  COC(=O)N1CC=C(c2cc(N3CCC[C@@H](NC(=O)c4sc5ccccc5c4OC4CNC4)C3)c3c(N)ncnn23)C1               IC50           85

Please examine the following record next.
Req: # input molecule: CS(=O)(=O)N1CC=C(c2cc(N3CCC[C@@H](NC(=O)c4sc(Cl)cc4OCCN4CCOCC4)C3)c3c(N)ncnn23)C1 [Example 142, TFA] ; wanted: its IC50
Resp: 9
